Sourced from patent US7816346B2

system: MX-1 (human breast carcinoma) cells; assay: in vitro growth inhibition, cytotoxicity assay (Promega CellTiter Blue Cell Viability Assay); assay type: cell-based; conditions: Homo sapiens, MX1; MX-1 cells, 72 hrs exposure, CellTiter Blue; read-out: IC50, μM MX-1
experimental-readout: IC50 (µM)
Write the number in µM without appending the unit.

Look at this compound and give its reported IC50. COC1=C2C[C@@H](C)C[C@H](OC)[C@H](O)[C@@H](C)/C=C(\C)[C@H](OC(N)=O)[C@@H](OC)/C=C\C=C(/C)C(=O)NC(=CC1=O)C2=O [GA, Geldanamycin]
0.5
